# protocol.notes: yeast display, Sf9 membrane polyspecificity reagent, FACS + sequencing; frameworks hold sequencing errors
observable: polyreactivity (PSR sort gate)

>>> measurement("QVQLVESGGGLVQAGGSLRLSCAASGSTSIYYTMGWYRQAPGKERELVAAITRGGRTYYADSVKGRFTISRDNAKNTVYLQMNSLKPEDTAVYYCAATTYLVWGYNYWGQGTQVTVSS")
"low polyreactivity"
>>> measurement("QVQLVESGGGLVQAGGSLRLSCAASGFTFHYYDMGWYRQAPGKERELVASISWSGGDTYYADSVKGRFTISRDNAKNTVYLQMNSLKPEDTAVYYCAADPTQEVQYLTPYTYDYWGQGTQVTVSS")
"low polyreactivity"
>>> measurement("QVQLVESGGGLVQAGGSLRLSCAASGFIVVFNAMGWYRQAPGKERELVAAINGGDITNYADSVKGRFTISRDNAKNTVYLQMNSLKPEDTAVYYCAADGEDSMWTGYDYDYWGQGTQVTVSS")
"low polyreactivity"

----------
# protocol.notes: yeast display, Sf9 membrane polyspecificity reagent, FACS + sequencing; frameworks hold sequencing errors
observable: polyreactivity (PSR sort gate)

Some sequences with known polyreactivity (PSR sort gate) results, for comparison:
>>> measurement("QVQLVESGGGLVQAGGSLRLSCGASGRTFRRNAMGRYRQAPGKERELVAAIRWSSGSTYYADSVKGRFTISRDNAKNTVYLQMNSLKPEDTAVYYCAKRQWGGRESFDYWGQGTQVTVSS")
"low polyreactivity"
>>> measurement("QVQLVESGGGLVQAGGSLRLSCAASGRIFERYAMGRYRQAPGKERELVAAISVSGSGTYYADSVKGRFTISRDNAKNTVYLQINSLKPEDTAVYYCAADASLLGLYYYLFYLEVNYWGQGTQVTVSS")
"low polyreactivity"
>>> measurement("QVQLVESGGGLVQAGGSLRLSCAASGSIFQGYAMGWYRQAPGKERELVAAITASGGSTYYADSVKGRFTISRDNAMNTVYLQMNSLKPEDTAVYYCAAVRKSVGVKYDFWGQGTQVTVSS")
"high polyreactivity"
>>> measurement("QVQLVESGGGLVQAGGSLRLSCAASGITFKSNAMGWYRQAPGKERELVAAISRRASSTYYADSVKGRFTISRDNAKNTVYLQRNSLNPEDTAVYYCNAVLPVYRTNMDYWGQGTQVSVSS")
"high polyreactivity"

# context switch: different sequence, same polyreactivity (PSR sort gate)
Lab note: measured polyreactivity (PSR sort gate) of `QVQLVESGGGLVQAGGSLRLSCAASGFIFYYNAMGWYRQAPGKERELVAAISSSAGSTYYADSVKGRFTISRDNAKNTVYLQMNSLKPEDTAVYYCNADSSYRTIDSASDYDYWGQGTQVTVSS` was low polyreactivity

----------
# protocol.notes: yeast display, Sf9 membrane polyspecificity reagent, FACS + sequencing; frameworks hold sequencing errors
observable: polyreactivity (PSR sort gate)

Some sequences with known polyreactivity (PSR sort gate) results, for comparison:
>>> measurement("QDQLVESGGGLVQAGGSLRLSCAASGSTFLTYAMGWYRQAPGKERELVAAISKTGASTYYADSVKGRFTISRDNAKNTVYLQMNSLKPEDTAVYDCAAGRYTSYSPRYYYWGQGTQVTVSS")
"high polyreactivity"
>>> measurement("QFQLVESGGGLVQAGGSLRLSCASSGSIIGIYAMGWYRQAPGKERELVAAISWSGGSTYYADSVKGRFTISRDNAKNTVYLQMNSLKPEDTAVYYCAARGHYQYYWGQGTQVTVSS")
"high polyreactivity"
>>> measurement("QVQLEETGGGLVQAGGSLRLSCAASGLTFGVYAMGRYRQAPGKEMELVAAITWRGDTTYYADSVKGRFTISRYNAKNTVYLQMNSLKPEDSAVYYCAKDVPYRRVRSEYWGQGTQVTVSS")
"low polyreactivity"
>>> measurement("QVQLVESGGGVVQAGGSLRLSCAASGLIFRRYAMGWYRQAPGIERELVAAISGNGGSTYYADSVKGRFTISRDKAKNTVYVQMNCLKPEDTAVYYCAARSLGIYNYWGQGTQVTVSS")
"high polyreactivity"
>>> measurement("QVQLVESGGGLVQAGGSLRLSCAASGSIFSYNGMGWYRQAPGKEREFVAAITWRGGSTYYADSVKGRFTISRDNAMNTVYLQMNSLKPEDTAVYYCARRPGYALTWRVSGRYDYWGQGTQVTVSS")
"high polyreactivity"

For every listed record, write down its polyreactivity (PSR sort gate).
1. QFQLVDSGGGLVQAGGSLSLICAASGLIFYTYAMGWYRQAPGKERELVAAISRTRVSTYYADSVKGRFTISRDNAKNTVYLQMNSLKPEYTAVYYCATSRYLKLGYDYWGQGTQVTVSS
2. QVQLVESGGGLVQAGGSLRLSCAASGFTFTVYAMGWYRQAPGKERELVAVITSGDGTYYADSVKGRFTISRDNAKNTVYLQMHSLKPEDTAVYYCNARRYSSLRYRFAYDYWGQGTQVTESS
3. QVQLVESVGGLVQAGGSLRLSCAASGFIFYRYAMGWYRKAPGKEWEFVAAINYSATSTYYADSVKGRFTISRDNAKNTVYLQMNSLKPEDTAVYYCAAKRVRRLSYETKYDYWGQGTQVTVSS
4. QVQLVESGGGLVQAGGSLRLSCAASGRTFEVYAMGLYRQAPGKERELVATITYSGGITYYADSVKGRFTISRDNAKNTVYLQMNSLKPEDTAVYYPIGVRGDYDYWGQGTQVTVSS

1: high polyreactivity; 2: low polyreactivity; 3: high polyreactivity; 4: low polyreactivity

----------
# protocol.notes: yeast display, Sf9 membrane polyspecificity reagent, FACS + sequencing; frameworks hold sequencing errors
observable: polyreactivity (PSR sort gate)

Some sequences with known polyreactivity (PSR sort gate) results, for comparison:
>>> measurement("QVQLVESGGGLVQARGSLRLSCAASGFIVSPNVMGWYRQAPGKERELVAVISSTGSTYYADSVKGRFTISRDNAKNTVYLQMNSLKPEDTAVYHCNADYSWYGSSGRPGYDYWGQGTQVTVSS")
"low polyreactivity"
>>> measurement("QVQLVESGGGLVQAGGSLRLSCAASGSIFYKYAMGWYRQARGKERELVAAINRGVSTYYADSVKGRFTISRDNAKNTVYLQLTSLKPEDTAVYYCNADSTELRGYYYWGLGTQVTVSS")
"low polyreactivity"
>>> measurement("QVQLVESGGGLVQAGGSLRLSCAASGRIFNEYGMGWYRQAPGKERELVAAITWGGGSTYYADSVKGRFTISRDNAKNTVYVQMNSLKPEDTAVYYCNAVSERPIPWYYYWGQGTQVTVSS")
"low polyreactivity"
>>> measurement("QVQLVESGGGLVQAGGSLRLSCAASGIIFSSYAMGWYRQAPGKERELVAAISLSGGSTYYADSVKGRFTISRDNAKNTVYLQMNSLKPEDTAVFYCNTVRQRARFTKVDYWGQGTQVTVSS")
"high polyreactivity"
>>> measurement("QVQLVESAGGLVQAGGSLRLSCAASGSTLYQYTMGWYRQAPGKERELVAAISRSGGRTYYADSVKGRFTISRDNAKNTVYLQMNSLKPEDTAVYYCAVDPGAYDSWGQGTQVTVSS")
"high polyreactivity"

For every listed record, write down its polyreactivity (PSR sort gate).
1. QVQLVESGGGLVQAGGSHRLSCAASGRTFRINAMGWYRQAPGKERELVAAISRSGGSTYYADSVKGRFTISRDNAKNTVYLQMTSVKPEDTAVYYCAARPYYTWRYLPTKSGDYWGQGTLVTVSS
2. QVQLVESGGGLVQAGGSLRLSCAASGRTSNFNAMGWYRQAPGKERELVAAINSDGSTYYADSVKGRFTISRDNAKNTVYLQMNSLKPEDTAVYYCAAVSLFRDSQFDYWGQGTQVTVSS
3. QVQLVESGGGLVQAGGSLRLSCAASGRIFPANAMGWYRQAPWKERELVAAISSTGGSTYYADSVKGRFTISRDNAKNSVYLQMKSLKPEDTAVYYCAKVHYRWPRVTWPNVWWSFEYWGQGTQVSVSS
4. QVQLVESGGGLDQAGGRLRLICAASGNTFRFYTLGWYRQAPGQETEFVAAINSSGRTNYADSVKGRFTISRDNATNTVYLQMNSLKPEDTAVYYCAADYYQRSTFLGVDEYDYWGQGTQVTVSS
5. QVQLVESGGGLVQAGGSLRISCAASGRTFYGNAMGWYRQAPGKEREFFAAISASGGSTYYADSVKGRFTISRDNAKNTVYLQLNSLKPEDTSVYYCATDLGAFSVPYSPYDYWGLGTQVTVSS
6. QVQLVESGGGLVQAGGSLRLICDASGFTFSPNAMGWYRQAPGKERELVAAIDWSGDRTYYADSVKGRFTISRDNAKNTVYLQMNSLKPEDTAVYYCNDVRRSPGDYSYYYWGQGTQVTVSS
7. QVHLVESGGGLVQAGGSLRLSCPASGRIFAIYAAMGWTRQAPGKERELVAAISSGDNTNYADSVKGRFTISRDNAKNTVYLQLNSLKPDDTAVYYCNTNYGPTHRARYYYWGQGTQVTVSS

low polyreactivity
low polyreactivity
low polyreactivity
low polyreactivity
low polyreactivity
low polyreactivity
low polyreactivity
